# MEASURED_TARGET: T1, EsCas13d, nuclease-dead (Eubacterium siraeum, UniProt B0MS50, R295A;H300A;R849A;H854A)
# T1 sequence: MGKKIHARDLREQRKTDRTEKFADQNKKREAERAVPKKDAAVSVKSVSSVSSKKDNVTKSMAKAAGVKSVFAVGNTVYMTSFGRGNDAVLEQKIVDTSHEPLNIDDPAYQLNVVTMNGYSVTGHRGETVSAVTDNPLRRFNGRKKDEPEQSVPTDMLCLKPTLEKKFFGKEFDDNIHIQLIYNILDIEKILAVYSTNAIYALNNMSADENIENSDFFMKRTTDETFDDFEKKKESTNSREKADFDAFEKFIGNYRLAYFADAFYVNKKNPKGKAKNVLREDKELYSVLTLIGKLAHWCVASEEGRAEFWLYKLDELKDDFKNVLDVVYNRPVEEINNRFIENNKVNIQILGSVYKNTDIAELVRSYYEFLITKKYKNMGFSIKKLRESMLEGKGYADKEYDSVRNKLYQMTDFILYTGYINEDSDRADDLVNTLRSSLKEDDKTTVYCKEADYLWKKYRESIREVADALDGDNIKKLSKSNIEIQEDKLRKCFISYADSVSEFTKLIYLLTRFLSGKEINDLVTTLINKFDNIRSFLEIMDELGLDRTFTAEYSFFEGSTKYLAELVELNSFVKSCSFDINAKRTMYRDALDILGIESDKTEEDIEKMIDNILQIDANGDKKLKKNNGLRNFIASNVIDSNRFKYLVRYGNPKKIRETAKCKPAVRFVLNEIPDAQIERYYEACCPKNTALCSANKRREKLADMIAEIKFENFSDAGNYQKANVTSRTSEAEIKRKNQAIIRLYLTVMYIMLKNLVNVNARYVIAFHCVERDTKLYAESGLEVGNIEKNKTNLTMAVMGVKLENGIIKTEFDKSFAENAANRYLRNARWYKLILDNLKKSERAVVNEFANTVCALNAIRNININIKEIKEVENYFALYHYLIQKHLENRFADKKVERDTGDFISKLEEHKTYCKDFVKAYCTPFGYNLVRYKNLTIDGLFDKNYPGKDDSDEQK
# ASSAY_TEXT: crRNA (strand 1, pre-loaded); Mg2+; 40 mM Tris-HCl pH 7.5, 150 mM NaCl, 6 mM MgCl2, 1 mM DTT, 0.1% Tween-20, 0.2 mg/ml BSA; 25 C; 10 min per concentration, then washed
# MEASUREMENT_SETUP: tags: His6-TwinStrep-SUMO cleaved; N-terminal SNAP kept (SNAP-Surface 488); label: 3' end held by stalled T7 RNA polymerase
Property: Kd; scope: individual binders

{"columns": ["BINDER", "Kd"],
 "data": [
  ["target 1 U8C,G17C (mixed) RNA 1: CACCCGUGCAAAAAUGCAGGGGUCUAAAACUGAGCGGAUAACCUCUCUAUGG RNA 2: GGGAAUGGAUCCACAUCUACGAAUUCGUACCAUACAGAGGUUACCCGCUCACCGAGAUCGGAAGAGCACACGU", "90 nM"],
  ["target 1 insC 3' of 22,insA 3' of 8 (mixed) RNA 1: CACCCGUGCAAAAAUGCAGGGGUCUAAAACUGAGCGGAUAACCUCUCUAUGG RNA 2: GGGAAUGGAUCCACAUCUACGAAUUCGUACCCAUAGAGAGGUUAUACCGCUCACCGAGAUCGGAAGAGCACACGU", "31.4 nM"],
  ["target 2 MT 5'PFS GUU 3'PFS CUC (mixed) RNA 1: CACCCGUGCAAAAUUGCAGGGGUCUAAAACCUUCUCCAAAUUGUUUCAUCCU RNA 2: GGGAAUGGAUCCACAUCUACGAAUUCGUUAGGAUGAAACAAUUUGGAGAAGCUCAGAUCGGAAGAGCACACGU", "20.4 nM"],
  ["target 2 MT 5'PFS UUU 3'PFS AGA (mixed) RNA 1: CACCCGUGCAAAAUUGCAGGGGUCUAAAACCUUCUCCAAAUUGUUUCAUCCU RNA 2: GGGAAUGGAUCCACAUCUACGAAUUCUUUAGGAUGAAACAAUUUGGAGAAGAGAAGAUCGGAAGAGCACACGU", "7.3 nM"]
]}
